METHOD_SUMMARY: Hydrolysis in buffer solutions, release monitored by HPLC
Type: physicochemical
CONDITION_INFO: pH 4.3 citrate buffer; 1 mg/ml in acetonitrile 80% / buffer solution 20%; read-out: t1/2 pH 4.3
Description: The compound is put into an acid medium (citrate buffer for pH 4.3 and […] buffer for pH 7.3) and release of CI-994 is monitored by HPLC. The hydrolysis of the compounds of the invention was carried out in buffer solutions (citrate buffer for pH 4.3 and […] for pH 7.3) at pH=4.3 and at pH=7.3. The concentration of the samples is 1 mg/ml in the solution: acetonitrile at 80% and buffer solution at 20%. […] In some cases the measurements were prolonged for 2 or 3 weeks, or even a month.
MEASURED_ATTRIBUTE: half-life at 1 mg/ml (min)
Write the number in min without appending the unit.

Q: For the compound "C#CCOCCOCCOCCOCCn1cc(C(Nc2ccccc2NC(=O)c2ccc(NC(C)=O)cc2)(c2ccccc2)c2ccccc2)nn1" , what half-life at 1 mg/ml is on record?
Ans: 30
